system_tested: T1, ヒト組織因子経路インヒビター (human TFPI) (human, UniProt P10646 29-304, limits assumed)
T1 construct: Coated on Maxisorp plates (ELISA) or amine-coupled to a CM5 chip (Biacore); also called ヒトTFPI; hTFPI
T1 sequence (looked up): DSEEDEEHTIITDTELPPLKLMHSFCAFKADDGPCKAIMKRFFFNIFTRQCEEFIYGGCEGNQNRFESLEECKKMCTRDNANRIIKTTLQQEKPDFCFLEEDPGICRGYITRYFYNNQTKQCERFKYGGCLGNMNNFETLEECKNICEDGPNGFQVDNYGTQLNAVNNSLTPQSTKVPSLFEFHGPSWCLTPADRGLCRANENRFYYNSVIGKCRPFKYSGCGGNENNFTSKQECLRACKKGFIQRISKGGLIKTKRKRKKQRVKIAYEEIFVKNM
assay_overview: ELISA, Fab in bacterial lysate on human TFPI-coated plate
measure: binding result

| binder | measure | val |
| --- | --- | --- |
| TP-2G2 (Fab, V domains shown, Human Fab (HuCal Gold), made in E. coli TG1) VH: QVQLVESGGGLVQPGGSLRLSCAASGFTFSSYAMNWVRQAPGKGLEWVSAILSDGSSTSYADSVKGRFTISRDNSKNTLYLQMNSLRAEDTAVYYCARYPDWGWYTDVWGQGTLVTVSS VL: DIELTQPPSVSVAPGQTARISCSGDNIRKFYVHWYQQKPGQAPVLVIYGTNKRPSGIPERFSGSNSGNTATLTISGTQAEDEADYYCQSYDSKFNTVFGGGTKLTVLG | binding result | binds |
| TP-3C3 (Fab, V domains shown, Human Fab (HuCal Gold), made in E. coli TG1) VH: QVQLQQSGPGLVKPSQTLSLTCAISGDSVSSNSAAWGWIRQSPGRGLEWLGVIYYRSKWYNDYAVSVKSRITINPDTSKNQFSLQLNSVTPEDTAVYYCARARAKKSGGFDYWGQGTLVTVSS VL: DIQMTQSPSSLSASVGDRVTITCRASQSINPYLNWYQQKPGKAPKLLIYAASNLQSGVPSRFSGSGSGTDFTLTISSLQPEDFAVYYCQQLDNRSITFGQGTKVEIKR | binding result | binds |
| TP-4A7 (Fab, V domains shown, Human Fab (HuCal Gold), made in E. coli TG1) VH: QVQLVESGGGLVQPGGSLRLSCAASGFTFRNYAMNWVRQAPGKGLEWVSVISGSSSYTYYADSVKGRFTISRDNSKNTLYLQMNSLRAEDTAVYYCARADLPYMVFDYWGQGTLVTVSS VL: DIELTQPPSVSVAPGQTARISCSGDALGSKFAHWYQQKPGQAPVLVIYDDSERPSGIPERFSGSNSGNTATLTISGTQAEDEADYYCQAYDSGLLYVFGGGTKLTVLG | binding result | binds |

Values were extracted from patent JP2016028048A.
